src = patent US10711041B2

Target: amilorid-sensitive Sodium Ion Channel (ENaC) (Homo sapiens)
Construct: Macroscopic Sodium Ion Currents were derived from human lung epithelian cells A549; endogenous in cells; host or cells: A549 human lung epithelial cells
Sequence (P37088 1-669): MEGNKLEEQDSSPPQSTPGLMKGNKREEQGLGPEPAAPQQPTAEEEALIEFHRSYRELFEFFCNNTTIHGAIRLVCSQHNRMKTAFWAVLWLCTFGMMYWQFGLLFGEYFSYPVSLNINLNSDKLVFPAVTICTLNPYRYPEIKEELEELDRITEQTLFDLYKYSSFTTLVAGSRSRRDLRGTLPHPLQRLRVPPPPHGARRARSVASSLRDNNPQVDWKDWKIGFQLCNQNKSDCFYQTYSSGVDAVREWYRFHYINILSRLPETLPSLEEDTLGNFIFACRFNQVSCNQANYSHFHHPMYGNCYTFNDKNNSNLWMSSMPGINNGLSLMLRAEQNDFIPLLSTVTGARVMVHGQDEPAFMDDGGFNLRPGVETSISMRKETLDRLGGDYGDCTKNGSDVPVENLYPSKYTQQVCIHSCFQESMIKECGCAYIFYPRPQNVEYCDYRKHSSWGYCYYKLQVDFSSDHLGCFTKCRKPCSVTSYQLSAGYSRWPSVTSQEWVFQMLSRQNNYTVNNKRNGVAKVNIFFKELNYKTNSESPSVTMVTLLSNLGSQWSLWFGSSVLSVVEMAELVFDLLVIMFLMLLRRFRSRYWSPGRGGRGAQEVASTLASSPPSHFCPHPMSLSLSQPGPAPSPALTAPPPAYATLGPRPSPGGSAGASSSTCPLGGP
Sequence (P51168 1-640 partner): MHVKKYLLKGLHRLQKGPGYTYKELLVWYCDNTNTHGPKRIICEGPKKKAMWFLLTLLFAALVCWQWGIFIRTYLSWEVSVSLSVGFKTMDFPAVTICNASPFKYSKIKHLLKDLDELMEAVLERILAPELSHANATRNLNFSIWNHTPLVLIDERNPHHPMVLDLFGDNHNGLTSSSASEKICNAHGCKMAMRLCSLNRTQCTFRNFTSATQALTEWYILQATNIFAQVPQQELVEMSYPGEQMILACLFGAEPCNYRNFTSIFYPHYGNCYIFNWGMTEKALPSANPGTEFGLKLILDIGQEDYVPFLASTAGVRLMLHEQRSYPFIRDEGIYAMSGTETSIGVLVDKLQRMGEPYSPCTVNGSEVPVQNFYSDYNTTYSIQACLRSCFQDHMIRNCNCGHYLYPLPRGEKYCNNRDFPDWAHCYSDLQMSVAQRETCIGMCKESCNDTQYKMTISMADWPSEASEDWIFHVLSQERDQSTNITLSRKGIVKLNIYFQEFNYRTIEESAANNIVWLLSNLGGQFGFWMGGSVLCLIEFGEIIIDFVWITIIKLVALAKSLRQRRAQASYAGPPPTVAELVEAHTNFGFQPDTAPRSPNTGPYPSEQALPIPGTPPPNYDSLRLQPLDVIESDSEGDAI
Sequence (P51170 1-649 partner): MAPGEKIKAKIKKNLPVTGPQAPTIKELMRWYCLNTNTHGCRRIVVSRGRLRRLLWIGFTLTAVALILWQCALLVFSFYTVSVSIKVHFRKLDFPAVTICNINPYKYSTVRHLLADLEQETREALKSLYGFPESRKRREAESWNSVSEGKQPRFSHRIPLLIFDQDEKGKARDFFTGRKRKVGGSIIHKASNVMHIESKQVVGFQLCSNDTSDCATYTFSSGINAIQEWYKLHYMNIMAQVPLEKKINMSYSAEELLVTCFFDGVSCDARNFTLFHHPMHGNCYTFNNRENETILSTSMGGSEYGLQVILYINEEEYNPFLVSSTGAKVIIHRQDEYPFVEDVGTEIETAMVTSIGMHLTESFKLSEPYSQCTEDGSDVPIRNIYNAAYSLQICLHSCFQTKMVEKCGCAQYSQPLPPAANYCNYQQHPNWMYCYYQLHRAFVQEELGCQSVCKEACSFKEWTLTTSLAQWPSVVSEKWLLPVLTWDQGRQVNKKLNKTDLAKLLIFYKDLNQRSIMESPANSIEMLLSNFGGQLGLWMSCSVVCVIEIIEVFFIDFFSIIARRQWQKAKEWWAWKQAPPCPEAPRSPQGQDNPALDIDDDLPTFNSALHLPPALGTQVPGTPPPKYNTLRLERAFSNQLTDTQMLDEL
Assay: Patch Clamp whole cell sodium current in deglycosylated (PNGase F) and untreated A549 cells
Format: cell-based
Details: pre-treatment with PNGase F, peptide 240 nM, Eh = −100 mV
Reported values of whole cell sodium current for individual entries

Solved entries:
C[C@@H]1NC(=O)CNC(=O)[C@H](CCC(=O)O)NC(=O)[C@@H]2CCCN2C(=O)[C@H]([C@@H](C)O)NC(=O)[C@H](CCC(=O)O)NC(=O)[C@H](CCCNC(=N)N)NC(=O)[C@H](CCC(N)=O)NC(=O)CNC(=O)[C@@H]2CCCN2C(=O)[C@H](CO)NC(=O)[C@@H](N)CCCCNC(=O)CC[C@@H](C(=O)O)NC(=O)[C@H](Cc2ccc(O)cc2)NC(=O)[C@H](Cc2c[nH]c3ccccc23)NC(=O)[C@@H]2CCCN2C(=O)[C@H](CCCCN)NC(=O)[C@H](C)NC(=O)[C@H](CCC(=O)O)NC1=O ... 21.3 pA (n = 3)
C[C@@H]1NC(=O)CNC(=O)[C@H](CCC(=O)O)NC(=O)[C@@H]2CCCN2C(=O)[C@H]([C@@H](C)O)NC(=O)[C@H](CCC(=O)O)NC(=O)[C@H](CCCNC(=N)N)NC(=O)[C@H](CCC(N)=O)NC(=O)CNC(=O)CCNC(=O)CC[C@@H](C(=O)O)NC(=O)[C@H](Cc2ccc(O)cc2)NC(=O)[C@H](Cc2c[nH]c3ccccc23)NC(=O)[C@@H]2CCCN2C(=O)[C@H](CCCCN)NC(=O)[C@H](C)NC(=O)[C@H](CCC(=O)O)NC1=O ... 19.9 pA (n = 3)
C[C@@H]1NC(=O)CNC(=O)[C@H](CCC(=O)O)NC(=O)[C@@H]2CCCN2C(=O)[C@H]([C@@H](C)O)NC(=O)[C@H](CCC(=O)O)NC(=O)[C@H](CCCNC(=N)N)NC(=O)[C@H](CCC(N)=O)NC(=O)CNC(=O)[C@@H](N)CCCCNC(=O)CNC(=O)[C@H](Cc2ccc(O)cc2)NC(=O)[C@H](Cc2c[nH]c3ccccc23)NC(=O)[C@@H]2CCCN2C(=O)[C@H](CCCCN)NC(=O)[C@H](C)NC(=O)[C@H](CCC(=O)O)NC1=O ... 20.6 pA (n = 3)

Please find the next molecule below.
### Prompt Enter recorded whole cell sodium current with amilorid-sensitive Sodium Ion Channel (ENaC) (Homo sapiens) for `C[C@@H]1NC(=O)CNC(=O)[C@H](CCC(=O)O)NC(=O)[C@@H]2CCCN2C(=O)[C@H]([C@@H](C)O)NC(=O)[C@H](CCC(=O)O)NC(=O)[C@H](CCCNC(=N)N)NC(=O)[C@H](CCC(N)=O)NC(=O)CNC(=O)CCCNC(=O)C[C@@H](C(=O)O)NC(=O)[C@H](Cc2ccc(O)cc2)NC(=O)[C@H](Cc2c[nH]c3ccccc23)NC(=O)[C@@H]2CCCN2C(=O)[C@H](CCCCN)NC(=O)[C@H](C)NC(=O)[C@H](CCC(=O)O)NC1=O` here.
### Response 22.4 pA (n = 3)
